measurement target: α4β1 integrin on J6.77 cells (UniProt P13612 34-1032; P05556 21-798)
experiment: cell-based or functional assay
Attribute: Percent Inhibition of J6.77 adhesion to CS-1 peptide, 5 ug/ml
experimental endpoint: Percent Inhibition of J6.77 adhesion to CS-1 peptide, 5 ug/ml

>  <binder>
sc 161 (antibody, V domains shown, kappa light chain) VH: EVQLVQSGAEVKKPGESLKISCKGSGYSFTSYWIGWVRQMPGKGLEWMGIIYPGDSDTRYSPSFQGQVTISADKSISTAYLQWSSLKASDTAMYYCARHGIAAAGFYYYYMDVWGQGTTVTVSS VL: EIVLTQSPDTLSLSPGERASLSCRASQNVNRNYLVWYQQKPGQAPRLLIYGTSNRATGIPDRFSGSGSGTDFTLTISRLEPEDFAVYYCQQCGSLPFTFGPGTKVDIKR

>  <assay value>
12%

$$$$
>  <binder>
sc 264 (antibody, V domains shown, lambda light chain) VH: QVQLQESGPGLVKPSQTLSLTCTVSGGSISSGGYYWSWIRQHPGKGLEWIGYIYYSGRTYNNPSLKSRVTISVDTSKNQFSLKLSSVTAADTAVYYCARVATGRGDYHFYAMDVWGQGTTVTVSS VL: SYELTQPSSVSVSPGQTARITCSGDVLAKKSARWFHQKPGQAPVLVIYKDSERPSGIPERFSGSSSGTTVTLTISGAQVEDEAAYYCYSAADNNLVFGGGTKLTVL

>  <assay value>
-8%

$$$$
>  <binder>
sc 97 (antibody, V domains shown, lambda light chain; also called sc 097) VH: EVQLVQSGAEVKKPGESLKISCKGSGYSFTSYWIGWVRQMPGKGLEWMGIIYPGDSDTRYSPSFQGQVILSADKSISTAYLQWSSLKASDTAMYYCARHDESSGYYYVFDIWGQGTMVTVSS VL: SYELTQPPSVSVSPGQTARITCSGDALPKKYAYWYQQKSGQAPVLVIYEDIKRPSGIPERFSGSSSGTMATLTISGAQVEDEADYYCYSTDSSGNHWVFFGGGTKLTVL

>  <assay value>
-7%

$$$$
>  <binder>
sc 188 (antibody, V domains shown, kappa light chain) VH: QVQLQESGPGLVKPSQTLSLTCTVSGGSISSGVYYWTWIRQHPGNGLEWIGYIYYSGSTSYNPSLKSRVTISVDTSKKQFSLNLTSVTAADTAVYYCAREGPLRGDYYYGLDVWGQGTTVTVSS VL: EIVLTQSPGTLSLSPGERATLSCRAGQTISSRYLAWYQQKPGQAPRPLIYGASSRATGIPDRFSGSGSGTDFTLTISRLEPEDFAVYYCQQYGSSPRTFGQGTKVEIK

>  <assay value>
-10%

$$$$
>  <binder>
sc 320 (antibody, V domains shown, lambda light chain) VH: EVQLVESGGGLVKPGGSLRLSCAASGYTFTNYIMHWVRQAPGKGLEWVSSISISSSYIYYADSVKGRFTISRDNAKNSLYLQMNSLRAEDTAVYYCARDPVPLERRDYYYGMDVWGQGTTVTVSS VL: QSVLTQPPSMSAAPGQKVTISCSGSSSNIGNNYVSWYQQLPGTAPKLLIYDNNKRPSGIPDRFSGSKSGTSATLGITGLQTGDEADYYCGTWDSSLSAGVFGGGTKLTVL

>  <assay value>
-8%

$$$$
